- measuredTarget: UniProt O08914
- Sequence (O08914 whole entry): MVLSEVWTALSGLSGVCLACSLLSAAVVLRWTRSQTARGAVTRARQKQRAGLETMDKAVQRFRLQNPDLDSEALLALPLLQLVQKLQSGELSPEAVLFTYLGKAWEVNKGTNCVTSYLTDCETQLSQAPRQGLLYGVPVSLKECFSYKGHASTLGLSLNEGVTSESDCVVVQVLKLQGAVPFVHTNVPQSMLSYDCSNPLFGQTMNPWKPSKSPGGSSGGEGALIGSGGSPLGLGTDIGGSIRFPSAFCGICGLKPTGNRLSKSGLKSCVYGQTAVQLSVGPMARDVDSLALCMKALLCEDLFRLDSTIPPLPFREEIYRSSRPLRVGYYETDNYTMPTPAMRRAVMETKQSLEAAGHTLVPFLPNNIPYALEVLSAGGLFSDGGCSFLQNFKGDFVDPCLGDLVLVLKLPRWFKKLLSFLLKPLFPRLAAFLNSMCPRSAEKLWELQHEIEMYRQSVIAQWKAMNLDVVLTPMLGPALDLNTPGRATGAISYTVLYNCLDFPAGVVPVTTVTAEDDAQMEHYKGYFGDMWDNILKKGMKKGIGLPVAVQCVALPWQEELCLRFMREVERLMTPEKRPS
- assayExplanation: In vitro competitive activity-based protein profiling (FP-Rh), mouse FAAH
- Format: biochemical
- Parameters: from tissue; host or cells: mouse brain membrane fraction
- statedConditions: Table 2, mouse proteome, 30 min preincubation at 37° C.
quantityName: IC50

O=C(ON1C(=O)CCC1=O)N1CCN(Cc2ccc(C(F)(F)F)cc2N2CCCC2)CC1 [Example 105] : > 10000 nM
COc1cc(N2CCOCC2)ccc1CN1CCN(C(=O)ON2C(=O)CCC2=O)CC1 [Example 67] : 1000 to 10000 nM

# next compound below
query: Item under review: O=C(ON1C(=O)CCC1=O)N1CCN(Cc2ccc(N3CCCC3)cc2OC(F)(F)F)CC1 [Example 104] . Reported IC50?
result: > 10000 nM

* * *

- measuredTarget: ABHD6 (Mus musculus)
- Sequence (Q8R2Y0 whole entry): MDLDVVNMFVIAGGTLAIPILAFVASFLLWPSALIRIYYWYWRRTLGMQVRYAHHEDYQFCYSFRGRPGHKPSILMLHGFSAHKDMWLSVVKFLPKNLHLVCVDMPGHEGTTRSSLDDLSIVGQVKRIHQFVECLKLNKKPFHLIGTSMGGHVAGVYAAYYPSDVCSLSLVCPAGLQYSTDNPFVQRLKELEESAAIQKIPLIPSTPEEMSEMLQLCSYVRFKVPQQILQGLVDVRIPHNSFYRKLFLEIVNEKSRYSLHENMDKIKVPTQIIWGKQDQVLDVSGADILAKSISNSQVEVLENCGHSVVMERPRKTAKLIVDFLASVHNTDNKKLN
- assayExplanation: In vitro competitive activity-based protein profiling (FP-Rh), mouse ABHD6
- Type: biochemical
- Design: from tissue; host or cells: mouse brain membrane fraction
- statedConditions: Table 2, mouse proteome, 30 min preincubation at 37° C.
quantityName: IC50

Below, each entry is followed by its recorded IC50 result.
CC(=O)N1CCN(c2cc(Cl)ccc2CN2CCN(C(=O)ON3C(=O)CCC3=O)CC2)CC1 : 1000 to 10000 nM
O=C(ON1C(=O)CCC1=O)N1CCN(Cc2ccc(N3CCOCC3)c(Cl)c2)CC1 : 100 to 1000 nM
Cc1ccc(CN2CCN(C(=O)ON3C(=O)CCC3=O)CC2)cc1 : 1000 to 10000 nM
CC(C)c1cc(-c2ccccc2)ccc1CN1CCN(C(=O)ON2C(=O)CCC2=O)CC1 : 1000 to 10000 nM
Cc1nc2ccc(Cl)cn2c1CN1CCN(C(=O)ON2C(=O)CCC2=O)CC1 : 100 to 1000 nM

query: Report IC50 for O=C(ON1C(=O)CCC1=O)N1CCN(Cc2ccc(Cl)cc2N2CCOC3CCCC32)CC1 (stereo not shown) please.
result: 1000 to 10000 nM

query: Given the entry O=C(ON1C(=O)CCC1=O)N1CCN(C(c2cocn2)c2cocn2)CC1 , report its measured IC50.
result: 1000 to 10000 nM

* * *

- measuredTarget: MAGL (Mus musculus, UniProt O35678)
- Sequence (O35678 whole entry): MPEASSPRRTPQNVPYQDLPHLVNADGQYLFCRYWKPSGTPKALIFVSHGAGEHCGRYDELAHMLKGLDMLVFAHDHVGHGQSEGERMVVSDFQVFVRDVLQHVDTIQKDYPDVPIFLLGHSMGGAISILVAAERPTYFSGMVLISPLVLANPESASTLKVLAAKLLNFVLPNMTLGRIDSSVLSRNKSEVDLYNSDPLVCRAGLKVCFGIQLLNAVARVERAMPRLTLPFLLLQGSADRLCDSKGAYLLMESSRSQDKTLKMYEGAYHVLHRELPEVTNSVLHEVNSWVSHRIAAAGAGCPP
- assayExplanation: In vitro competitive ABPP, % inhibition at fixed concentration, MAGL
- Format: biochemical
- Design: from tissue
Each entry below lists one item and its recorded inhibition at 1 µM value.

Sample records with inhibition at 1 µM:
Cc1cnccc1-c1ccc(CN2CCN(C(=O)ON3C(=O)CCC3=O)CC2)c(F)c1 [Example 177] : 25 to 75%
Cc1c(CN2CCN(C(=O)ON3C(=O)CCC3=O)CC2)cccc1C(=O)N1CCOCC1 [Example 205] : < 25%
O=C(ON1C(=O)CCC1=O)N1CCN(Cc2cc(C(F)(F)F)ccc2N2CCCC2)CC1 [Example 120] : > 75%
Cc1cc(-c2ccc(CN3CCN(C(=O)ON4C(=O)CCC4=O)CC3)c(C)c2)ccn1 [Example 159] : 25 to 75%
O=C(ON1C(=O)CCC1=O)N1CCN(Cc2ccc(C(=O)N3CCCC3)cc2Cl)CC1 [Example 193] : 25 to 75%

query: Entry O=C(ON1C(=O)CCC1=O)N1CCN(Cc2ccc(Cl)cc2N2CCC3(CCNC3=O)CC2)CC1 [Example 111] , system MAGL (Mus musculus, UniProt O35678): what inhibition at 1 µM was measured?
result: 25 to 75%
